These measurements were taken from patent US12037324B2.

Tested system: hAT1R (Homo sapiens, UniProt P30556)
Sequence (P30556 whole entry): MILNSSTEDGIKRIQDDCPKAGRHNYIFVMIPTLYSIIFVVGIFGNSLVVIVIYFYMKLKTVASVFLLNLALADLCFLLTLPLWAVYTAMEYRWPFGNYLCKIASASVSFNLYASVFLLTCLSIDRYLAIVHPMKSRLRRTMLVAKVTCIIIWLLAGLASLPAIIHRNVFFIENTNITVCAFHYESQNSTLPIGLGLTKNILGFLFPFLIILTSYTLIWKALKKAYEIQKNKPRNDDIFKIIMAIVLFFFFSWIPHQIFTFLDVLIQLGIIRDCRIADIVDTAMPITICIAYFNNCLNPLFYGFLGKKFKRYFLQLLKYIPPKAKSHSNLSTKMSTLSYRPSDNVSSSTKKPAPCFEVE
Assay summary: BRET β-arrestin2 biosensor assay, higher receptor expression (hAT1R 5 ng/well), HEK293 cells
Assay type: cell-based
Value kind: BRET β-Arrestin2 High AT1R Expression Ymax (%)
Hi! Could you send only the number? It should be in %, unit omitted.

Request: So what does the record say about BRET β-Arrestin2 High AT1R Expression Ymax (%) for "CCc1nc2c(C)cc(C)nc2n1Cc1ccc(-c2cc(-n3cc(CCO)nn3)ccc2-c2nnn[nH]2)cc1" ?
Result: 35.0

Request: So what does the record say about BRET β-Arrestin2 High AT1R Expression Ymax (%) for "CCc1nc2c(C)cc(C)nc2n1Cc1ccc(-c2cc(-n3cccc3)ccc2-c2nn[nH]n2)cc1" ?
Result: 77.7

Request: So what does the record say about BRET β-Arrestin2 High AT1R Expression Ymax (%) for "CCc1nc2c(C)cc(C)nc2n1Cc1ccc(-c2cc(-c3ccccc3)ccc2-c2nnn[nH]2)cn1" ?
Result: 90.6

Request: So what does the record say about BRET β-Arrestin2 High AT1R Expression Ymax (%) for "CCCCC(=O)N(Cc1ccc(-c2cc(-c3ccccc3)ccc2-c2nn[nH]n2)cn1)[C@H](C(=O)O)C(C)C" ?
Result: 92.7

Request: So what does the record say about BRET β-Arrestin2 High AT1R Expression Ymax (%) for "CCCCc1nc(Cl)c(C(=O)O)n1Cc1ccc(-c2cc(-c3ccccc3)ccc2C(=O)O)cc1" ?
Result: 69.7

Request: So what does the record say about BRET β-Arrestin2 High AT1R Expression Ymax (%) for "CCc1nc2c(C)cc(C)nc2n1Cc1ccc(-c2cc(-c3nccs3)ccc2-c2nn[nH]n2)cc1" ?
Result: 63.0

Request: So what does the record say about BRET β-Arrestin2 High AT1R Expression Ymax (%) for "CCCCc1nc(Cl)c(C(=O)N(C)C)n1Cc1ccc(-c2cc(-c3ccccc3)ccc2-c2nn[nH]n2)cc1" ?
Result: 73.9

Request: So what does the record say about BRET β-Arrestin2 High AT1R Expression Ymax (%) for "CCc1nc2c(C)cc(C)nc2n1Cc1ccc(-c2cc(-c3ccccc3F)ccc2-c2nn[nH]n2)cc1" ?
Result: 89.8

Request: So what does the record say about BRET β-Arrestin2 High AT1R Expression Ymax (%) for "CCCCC(=O)N(Cc1ccc(-c2cc(-c3cc(F)cc(F)c3)ccc2-c2nn[nH]n2)cc1)C1(C(=O)O)CCCCC1" ?
Result: 85.2

Request: So what does the record say about BRET β-Arrestin2 High AT1R Expression Ymax (%) for "CCCCC(=O)N(Cc1ccc(-c2cc(-c3ccccc3)ccc2-c2nn[nH]n2)cc1)C1(C(=O)O)CCC1" ?
Result: 74.3

Request: So what does the record say about BRET β-Arrestin2 High AT1R Expression Ymax (%) for "CCCCc1nc(Cl)c(C(=O)O)n1Cc1ccc(-c2cc(-c3cnn(C)c3)ccc2-c2nn[nH]n2)cc1" ?
Result: 35.3

Request: So what does the record say about BRET β-Arrestin2 High AT1R Expression Ymax (%) for CCc1nc2c(C)cc(C)nc2n1Cc1ccc(-c2cc(C3CCCCN3)ccc2-c2nn[nH]n2)cc1 (single isomer, unassigned) ?
Result: 53.9

Request: So what does the record say about BRET β-Arrestin2 High AT1R Expression Ymax (%) for "CCc1nc2c(C)cc(C)nc2n1Cc1ccc(-c2cc(Oc3cc(Cl)ccn3)ccc2-c2nn[nH]n2)cc1" ?
Result: 57.2

Request: So what does the record say about BRET β-Arrestin2 High AT1R Expression Ymax (%) for "CCCCc1ncc(C(=O)NCCC)n1Cc1ccc(-c2cc(-c3ccccc3)ccc2-c2nn[nH]n2)cc1" ?
Result: 78.9

Request: So what does the record say about BRET β-Arrestin2 High AT1R Expression Ymax (%) for "CCc1nc2c(C)cc(C)nc2n1Cc1cnc(-c2cc(-c3cccc(C)c3)ccc2C(=O)O)cn1" ?
Result: 88.5
